Measured NUCLEATED RED BLOOD CELLS by item
Species: Rattus norvegicus
assay_remarks: DrugMatrix - Regimen: Daily Repeat
Type: toxicity, organism-based, Sprague-Dawley
Set-up: regimen Daily Repeat, gender Male, age 6-8 weeks
measurement_parameters: in vivo, po, 0 mg/kg, 72 h, tissue Blood, route oral GAVAGE, dose level Control, time 3 day, vehicle 100 % WATER

Previously resolved entries follow.
• CCOC(N)=O = 0.17 /100WBC
• CCCCCCCCCCCCCCCC[n+]1ccccc1.[Br-] = 0 /100WBC
• CCN(CC)CC#CCOC(=O)C(O)(c1ccccc1)C1CCCCC1 (centres undefined) = 0 /100WBC
• CC(C)(C)NC[C@H](O)COc1nsnc1N1CCOCC1 = 0.67 /100WBC
• CCCc1nn(C)c2c(=O)[nH]c(-c3cc(S(=O)(=O)N4CCN(C)CC4)ccc3OCC)nc12 = 0 /100WBC
• Cc1c(N(C)CS(=O)(=O)[O-])c(=O)n(-c2ccccc2)n1C.[Na+] [DIPYRONE SODIUM] = 0 /100WBC
• CC[C@H]1OC(=O)[C@H](C)[C@@H](O[C@H]2C[C@@](C)(OC)[C@@H](O)[C@H](C)O2)[C@H](C)[C@@H](O[C@@H]2O[C@H](C)C[C@H](N(C)C)[C@H]2O)[C@](C)(OC)C[C@@H](C)C(=O)[C@H](C)[C@@H](O)[C@]1(C)O = 0 /100WBC
• OCCO = 0 /100WBC
• CC[C@H]1OC(=O)[C@H](C)[C@@H](O[C@H]2C[C@@](C)(OC)[C@@H](O)[C@H](C)O2)[C@H](C)[C@@H](O[C@@H]2O[C@H](C)C[C@H](N(C)C)[C@H]2O)[C@](C)(O)C[C@@H](C)CN(C)[C@H](C)[C@@H](O)[C@]1(C)O = 0 /100WBC
• O=P1(N(CCCl)CCCl)NCCCO1 (centres undefined) [CYCLOPHOSPHAMIDE ANHYDROUS] = 0.17 /100WBC

Asked: Tell me the measured NUCLEATED RED BLOOD CELLS of CN1C2CCCC1CC(NC(=O)c1nn(C)c3ccccc13)C2 (centres undefined) , please.
Given back: 0.67 /100WBC

Asked: Tell me the measured NUCLEATED RED BLOOD CELLS of "O=C(O)c1cccnc1" , please.
Given back: 0 /100WBC

Asked: Tell me the measured NUCLEATED RED BLOOD CELLS of "Nc1ccc(S(=O)(=O)Nc2nccs2)cc1" , please.
Given back: 0.67 /100WBC

Asked: Tell me the measured NUCLEATED RED BLOOD CELLS of "CNS(=O)(=O)Cc1ccc2[nH]cc(CCN(C)C)c2c1" , please.
Given back: 0 /100WBC

----------
Species on record: Rattus norvegicus
assay_remarks: DrugMatrix - Regimen: Daily Repeat
Assay type: toxicity, organism-based, Sprague-Dawley
Design: regimen Daily Repeat, gender Male, age 6-8 weeks
measurement_parameters: in vivo, po, 0 mg/kg, 120 h, tissue Plasma, route oral GAVAGE, dose level Control, time 5 day, […]
Measured SODIUM by item
Enter your answer as a number in MEQ/L; do not include the unit.

Previously resolved entries follow.
- CC[C@H](C)C(=O)O[C@H]1C[C@@H](C)C=C2C=C[C@H](C)[C@H](CC[C@@H]3C[C@@H](O)CC(=O)O3)[C@H]21: 145.3
- OCCN1CCN(CCCN2c3ccccc3Sc3ccc(C(F)(F)F)cc32)CC1: 142.53
- CC(C)Cc1ccc(CC(=O)O)cc1: 141.92

Asked: Tell me the measured SODIUM of "C#C[C@]1(O)CC[C@H]2[C@@H]3CCc4cc(O)ccc4[C@H]3CC[C@@]21C" , please.
Given back: 139.5

Asked: Tell me the measured SODIUM of CC(=O)Nc1nnc(S(N)(=O)=O)s1 [ACETAZOLAMIDE] , please.
Given back: 142.48

Asked: Tell me the measured SODIUM of CC(CCc1ccc(O)cc1)NCCc1ccc(O)c(O)c1 (centres undefined) , please.
Given back: 145.67

Asked: Tell me the measured SODIUM of "CCn1cc(C(=O)O)c(=O)c2cc(F)c(N3CCNCC3)nc21" , please.
Given back: 139.5

Asked: Tell me the measured SODIUM of CN(CCOc1ccc(CC2SC(=O)NC2=O)cc1)c1ccccn1 (centres undefined) , please.
Given back: 141.62

Asked: Tell me the measured SODIUM of "COc1ncnc(NS(=O)(=O)c2ccc(N)cc2)c1OC" , please.
Given back: 142.48

----------
Species on record: Rattus norvegicus
assay_remarks: DrugMatrix - Regimen: Daily Repeat
Assay type: toxicity, organism-based, Sprague-Dawley
Set-up: regimen Daily Repeat, gender Male, age 6-8 weeks
measurement_parameters: in vivo, po, 1500 mg/kg, 72 h, tissue Plasma, route oral GAVAGE, dose level High, time 3 day, vehicle .5 % CMC
Measured SODIUM by item
Enter your answer as a number in MEQ/L; do not include the unit.

* CC(C)(Sc1cc(C(C)(C)C)c(O)c(C(C)(C)C)c1)Sc1cc(C(C)(C)C)c(O)c(C(C)(C)C)c1 | 143.67
* C[C@@H](O)[C@H]1C(=O)N2C(C(=O)O)=C(S[C@@H]3CN[C@H](C(=O)N(C)C)C3)[C@H](C)[C@H]12 | 144.6
* Nc1nc2c(c(=O)[nH]1)N(C=O)C(CNc1ccc(C(=O)N[C@@H](CCC(=O)O)C(=O)O)cc1)CN2 (stereo not given in full) | 146.03
* CCOC(=O)[C@H](CCc1ccccc1)N[C@@H](C)C(=O)N1CCC[C@H]1C(=O)O | 142.4

We now examine a further compound.
Asked: Tell me the measured SODIUM of "O=c1cc(-c2ccccc2)oc2ccc3ccccc3c12" , please.
Given back: 145.33

----------
Species: Rattus norvegicus
assay_remarks: DrugMatrix - Regimen: Daily Repeat
Assay type: toxicity, organism-based, Sprague-Dawley
Parameters: regimen Daily Repeat, gender Male, age 6-8 weeks
measurement_parameters: in vivo, po, 0 mg/kg, 120 h, tissue Blood, route oral GAVAGE, dose level Control, time 5 day, vehicle 100 % WATER
Measured ERYTHROCYTE COUNT by item

Previously resolved entries follow.
• Nc1ccc(S(=O)(=O)Nc2ncccn2)cc1 [SULFADIAZINE] = 6.02 x10E6/uL
• CN1C2CCCC1CC(NC(=O)c1nn(C)c3ccccc13)C2 (stereo not given) [GRANISETRON] = 5.49 x10E6/uL
• OCCO [ETHYLENE GLYCOL] = 5.49 x10E6/uL
• CCCCCCCCCCCCCCCC[n+]1ccccc1.[Br-] = 5.84 x10E6/uL
• CCN(CC)CC#CCOC(=O)C(O)(c1ccccc1)C1CCCCC1 (stereo not given) [OXYBUTYNIN] = 6 x10E6/uL

Asked: Tell me the measured ERYTHROCYTE COUNT of Cc1c(N(C)CS(=O)(=O)[O-])c(=O)n(-c2ccccc2)n1C.[Na+] [DIPYRONE SODIUM] , please.
Given back: 5.74 x10E6/uL

Asked: Tell me the measured ERYTHROCYTE COUNT of Nc1ccc(S(=O)(=O)Nc2nccs2)cc1 [SULFATHIAZOLE] , please.
Given back: 5.49 x10E6/uL

Asked: Tell me the measured ERYTHROCYTE COUNT of CCN[C@@H](C)Cc1cccc(C(F)(F)F)c1 [DEXFENFLURAMINE] , please.
Given back: 6.02 x10E6/uL

Asked: Tell me the measured ERYTHROCYTE COUNT of O=C(O)c1cc(=O)c2c(OCC(O)COc3cccc4oc(C(=O)O)cc(=O)c34)cccc2o1 [CROMOLYN] , please.
Given back: 5.99 x10E6/uL

Asked: Tell me the measured ERYTHROCYTE COUNT of "CNS(=O)(=O)Cc1ccc2[nH]cc(CCN(C)C)c2c1" , please.
Given back: 5.78 x10E6/uL

----------
Organism: Rattus norvegicus
assay_remarks: DrugMatrix - Regimen: Daily Repeat
Format: toxicity, organism-based, Sprague-Dawley
Parameters: regimen Daily Repeat, gender Male, age 6-8 weeks
measurement_parameters: in vivo, po, 1500 mg/kg, 120 h, tissue Blood, route oral GAVAGE, dose level High, time 5 day, vehicle .5 % CMC
endpoint_name: ABSOLUTE SEGMENTED NEUTROPHIL (CELLS/uL)
Enter your answer as a number in CELLS/uL; do not include the unit.

Previously resolved entries follow.
• CC(C)(Sc1cc(C(C)(C)C)c(O)c(C(C)(C)C)c1)Sc1cc(C(C)(C)C)c(O)c(C(C)(C)C)c1 [PROBUCOL] = 1027
• C[C@@H](O)[C@H]1C(=O)N2C(C(=O)O)=C(S[C@@H]3CN[C@H](C(=O)N(C)C)C3)[C@H](C)[C@H]12 [MEROPENEM] = 1474.67
• CCOC(=O)[C@H](CCc1ccccc1)N[C@@H](C)C(=O)N1CCC[C@H]1C(=O)O = 992.67

Asked: Tell me the measured ABSOLUTE SEGMENTED NEUTROPHIL of Nc1nc2c(c(=O)[nH]1)N(C=O)C(CNc1ccc(C(=O)N[C@@H](CCC(=O)O)C(=O)O)cc1)CN2 (some centres undefined) [LEUCOVORIN] , please.
Given back: 930.67

Attribution: ChEMBL document CHEMBL3885881
